- system: T1, human VEGFR-2 (KDR) expressed on porcine aortic endothelial cells (PAE/KDR) (human, UniProt P35968 20-1356)
- T1 construct: whole, on cells; also called Flk-1/KDR; PAE/KDR cells
- T1 sequence (P35968 20-1356): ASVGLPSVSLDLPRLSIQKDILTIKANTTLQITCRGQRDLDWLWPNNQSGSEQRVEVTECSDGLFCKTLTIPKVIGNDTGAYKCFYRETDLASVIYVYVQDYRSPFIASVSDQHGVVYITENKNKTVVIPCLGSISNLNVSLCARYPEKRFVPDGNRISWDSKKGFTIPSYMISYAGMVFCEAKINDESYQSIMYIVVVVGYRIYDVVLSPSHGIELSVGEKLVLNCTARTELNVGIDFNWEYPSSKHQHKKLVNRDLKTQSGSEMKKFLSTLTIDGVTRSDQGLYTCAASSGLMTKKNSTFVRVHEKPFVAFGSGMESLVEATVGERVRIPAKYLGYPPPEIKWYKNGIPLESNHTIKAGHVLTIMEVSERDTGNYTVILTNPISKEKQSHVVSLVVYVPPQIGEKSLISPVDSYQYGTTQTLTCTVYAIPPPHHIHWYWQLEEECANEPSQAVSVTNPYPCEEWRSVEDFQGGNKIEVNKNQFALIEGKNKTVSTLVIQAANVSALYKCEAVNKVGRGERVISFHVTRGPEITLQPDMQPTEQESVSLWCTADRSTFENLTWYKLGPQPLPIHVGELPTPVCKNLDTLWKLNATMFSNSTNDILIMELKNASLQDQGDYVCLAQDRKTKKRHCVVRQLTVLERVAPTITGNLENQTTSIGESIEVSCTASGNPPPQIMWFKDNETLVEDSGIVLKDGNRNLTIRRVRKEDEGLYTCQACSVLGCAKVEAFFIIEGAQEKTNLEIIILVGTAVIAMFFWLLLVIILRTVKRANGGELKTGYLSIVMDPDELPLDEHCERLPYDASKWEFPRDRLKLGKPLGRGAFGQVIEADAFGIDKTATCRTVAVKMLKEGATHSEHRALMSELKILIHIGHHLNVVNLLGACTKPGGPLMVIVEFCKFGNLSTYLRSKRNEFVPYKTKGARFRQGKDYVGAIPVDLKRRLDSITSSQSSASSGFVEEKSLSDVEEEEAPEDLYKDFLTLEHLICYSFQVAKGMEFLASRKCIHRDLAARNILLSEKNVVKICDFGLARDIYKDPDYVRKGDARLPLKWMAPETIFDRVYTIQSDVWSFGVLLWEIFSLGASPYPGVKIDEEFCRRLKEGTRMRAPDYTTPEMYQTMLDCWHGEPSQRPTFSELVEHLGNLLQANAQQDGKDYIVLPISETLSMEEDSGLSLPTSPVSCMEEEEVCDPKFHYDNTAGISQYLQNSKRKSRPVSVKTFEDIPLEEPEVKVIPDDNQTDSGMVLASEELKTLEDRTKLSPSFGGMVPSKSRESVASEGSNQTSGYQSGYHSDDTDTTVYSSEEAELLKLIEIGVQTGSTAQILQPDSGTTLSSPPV
- test_summary: competitive cell binding on PAE/KDR cells, 125I-VEGF165 as radioligand
measured_property: IC50 (nM)
Numbers only, in nM.

Example entries and their recorded answers appear below.
binder="DOTA-VEGFDEE (ligand, DOTA conjugated; 2.2±0.1 DOTA molecules per monomeric VEGFDEE; sites not stated, DOTA conjugate of m4; not shown: His-tag) MAPMAEGGGQNHHEVVKFMDVYQRSYCHPIETLVDIFQEYPDEIEYIFKPSCVPLMRCGGCCNAAGLACVPTEESNITMQIMRIKPHQGQHIGEMSFLQHNKCECRPKKDRARQEKCDKPRRGS" assay_result=10.3
binder="DOTA-VEGF121 (Examples 1 and 2) (ligand, DOTA conjugated to lysine residues and/or N-terminal amine groups; 4.33±0.24 DOTA per VEGF121, The conjugation sites are not mapped) APMAEGGGQNHHEVVKFMDVYQRSYCHPIETLVDIFQEYPDEIEYIFKPSCVPLMRCGGCCNDEGLECVPTEESNITMQIMRIKPHQGQHIGEMSFLQHNKCECRPKKDRARQEKCDKPRR" assay_result=1.66
binder="VEGF121 protein (Examples 1 and 2: expressed from pET-32, tag removed with enterokinase) (ligand, also called unlabeled VEGF121; naive VEGF121) APMAEGGGQNHHEVVKFMDVYQRSYCHPIETLVDIFQEYPDEIEYIFKPSCVPLMRCGGCCNDEGLECVPTEESNITMQIMRIKPHQGQHIGEMSFLQHNKCECRPKKDRARQEKCDKPRR" assay_result=1.02
binder="DOTA-VEGF121 (Example 5) (ligand, DOTA conjugated; 2.1±0.1 DOTA molecules per monomeric VEGF121; sites not stated, DOTA conjugate of m3; not shown: His-tag) APMAEGGGQNHHEVVKFMDVYQRSYCHPIETLVDIFQEYPDEIEYIFKPSCVPLMRCGGCCNDEGLECVPTEESNITMQIMRIKPHQGQHIGEMSFLQHNKCECRPKKDRARQEKCDKPRR" assay_result=5

Consider the additional binder presented here.
So for VEGFR-2 specific mutant VEGFDEE (D63AE64AE67A mutant of VEGF121) (ligand, also called VEGF121-DEE Mutant; not shown: His-tag) MAPMAEGGGQNHHEVVKFMDVYQRSYCHPIETLVDIFQEYPDEIEYIFKPSCVPLMRCGGCCNAAGLACVPTEESNITMQIMRIKPHQGQHIGEMSFLQHNKCECRPKKDRARQEKCDKPRRGS , the logged IC50 turned out to be 11.7

Reference for the values: patent US20080031815A1
